- Test system: biotinyl-Met-oxazolone
- test.details: self-aminoacylation, catalytic enhancement (BMO) (fold over background); higher = more active; k-Seq, kA / k0A0; sequences stand for … in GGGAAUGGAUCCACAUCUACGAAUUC…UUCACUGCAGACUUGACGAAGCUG
Variants at the floor of the assay were thinned out.
Please respond with reported self-aminoacylation for every item in the list.
Give the figure only, with no unit attached.

Task: Param readout = self-aminoacylation; param system = biotinyl-Met-oxazolone; param query = AUUCACCUAGGUCAUUGGGUU [Fam2.2 aminoacylation ribozyme variant] ; response: value
Output: 1.34

Task: Param readout = self-aminoacylation; param system = biotinyl-Met-oxazolone; param query = CCACACUUCAAGCAAUUGGCC [Fam1B.1 aminoacylation ribozyme variant] ; response: value
Output: 2.58

Task: Param readout = self-aminoacylation; param system = biotinyl-Met-oxazolone; param query = CCACACUGCAAGCAAUCGGUU [Fam1B.1 aminoacylation ribozyme variant] ; response: value
Output: 2.17

Task: Param readout = self-aminoacylation; param system = biotinyl-Met-oxazolone; param query = AUUGCCCUGUUCAUCGAGUGA [Fam2.1 aminoacylation ribozyme variant] ; response: value
Output: 5.44

Task: Param readout = self-aminoacylation; param system = biotinyl-Met-oxazolone; param query = AAGUUUGUUAAUAUUCGCAAG [Fam3.1 aminoacylation ribozyme variant] ; response: value
Output: 1.15

Task: Param readout = self-aminoacylation; param system = biotinyl-Met-oxazolone; param query = AAUUUUGCUAAUAGUAGCAAG [Fam3.1 aminoacylation ribozyme variant] ; response: value
Output: 1.31

Task: Param readout = self-aminoacylation; param system = biotinyl-Met-oxazolone; param query = CCACAAUUCAAACAAUCGGUC [Fam1B.1 aminoacylation ribozyme variant] ; response: value
Output: 1.08

Task: Param readout = self-aminoacylation; param system = biotinyl-Met-oxazolone; param query = CUACAACAAACAAUCGGUCUG [Fam1A.1 aminoacylation ribozyme variant] ; response: value
Output: 0.496

Task: Param readout = self-aminoacylation; param system = biotinyl-Met-oxazolone; param query = ACACUCUUCAAGCAAUCGGUC [Fam1B.1 aminoacylation ribozyme variant] ; response: value
Output: 0.9

Task: Param readout = self-aminoacylation; param system = biotinyl-Met-oxazolone; param query = AUUACCCCGGUCAUCGUGUGA [Fam2.1 aminoacylation ribozyme variant] ; response: value
Output: 2.63

Task: Param readout = self-aminoacylation; param system = biotinyl-Met-oxazolone; param query = UUACUUCAAAAAAUCGGUCUG [Fam1A.1 aminoacylation ribozyme variant] ; response: value
Output: 1.22

Task: Param readout = self-aminoacylation; param system = biotinyl-Met-oxazolone; param query = ACACACUUCAAGCAAUCUGUC [Fam1B.1 aminoacylation ribozyme variant] ; response: value
Output: 0.567

Task: Param readout = self-aminoacylation; param system = biotinyl-Met-oxazolone; param query = CAACUUCAAACAAUAGGUCUG [Fam1A.1 aminoacylation ribozyme variant] ; response: value
Output: 0.997

Task: Param readout = self-aminoacylation; param system = biotinyl-Met-oxazolone; param query = AUUACCCUGGUCACCGUGUGA [Fam2.1 aminoacylation ribozyme variant] ; response: value
Output: 3.88

Task: Param readout = self-aminoacylation; param system = biotinyl-Met-oxazolone; param query = AAGUUUGCUAAUAGUCGCAUA [Fam3.1 aminoacylation ribozyme variant] ; response: value
Output: 0.936

Task: Param readout = self-aminoacylation; param system = biotinyl-Met-oxazolone; param query = CUACUUCAAACAAUCGAUCUG [Fam1A.1 aminoacylation ribozyme variant] ; response: value
Output: 0.574

Task: Param readout = self-aminoacylation; param system = biotinyl-Met-oxazolone; param query = AUUACCCUGGUAAUCGAGUGA [Fam2.1 aminoacylation ribozyme variant] ; response: value
Output: 8.63

Task: Param readout = self-aminoacylation; param system = biotinyl-Met-oxazolone; param query = AAGUUUGCUAAAAGUCACAAG [Fam3.1 aminoacylation ribozyme variant] ; response: value
Output: 0.971

Task: Param readout = self-aminoacylation; param system = biotinyl-Met-oxazolone; param query = AUACUUCAAACAAUAGGUCUG [Fam1A.1 aminoacylation ribozyme variant] ; response: value
Output: 0.812

Task: Param readout = self-aminoacylation; param system = biotinyl-Met-oxazolone; param query = AUUACCCUGGUCAUGGAGGGA [Fam2.1 aminoacylation ribozyme variant] ; response: value
Output: 1.83

Task: Param readout = self-aminoacylation; param system = biotinyl-Met-oxazolone; param query = CCACUUCUAACAAUCGGUCUG [Fam1A.1 aminoacylation ribozyme variant] ; response: value
Output: 0.758

Task: Param readout = self-aminoacylation; param system = biotinyl-Met-oxazolone; param query = AUUACCCUGGUCAUCGAGUUA [Fam2.1 aminoacylation ribozyme variant] ; response: value
Output: 10.8

Task: Param readout = self-aminoacylation; param system = biotinyl-Met-oxazolone; param query = AUUGACCUAGGUCAUCGGGUU [Fam2.2 aminoacylation ribozyme variant] ; response: value
Output: 13.9

Task: Param readout = self-aminoacylation; param system = biotinyl-Met-oxazolone; param query = AUUACCCCGGUCAUCGAGUGG [Fam2.1 aminoacylation ribozyme variant] ; response: value
Output: 1.25

Task: Param readout = self-aminoacylation; param system = biotinyl-Met-oxazolone; param query = AUAACCCUGGUCAUCGAUUGA [Fam2.1 aminoacylation ribozyme variant] ; response: value
Output: 0.883

Task: Param readout = self-aminoacylation; param system = biotinyl-Met-oxazolone; param query = AUUUACCUAUGUCAUCGGGUG [Fam2.2 aminoacylation ribozyme variant] ; response: value
Output: 4.35

Task: Param readout = self-aminoacylation; param system = biotinyl-Met-oxazolone; param query = AUUACCCUGGUCAUCGGUUGA [Fam2.1 aminoacylation ribozyme variant] ; response: value
Output: 2

Task: Param readout = self-aminoacylation; param system = biotinyl-Met-oxazolone; param query = CCACGCUUCAUGCAAUCGGUC [Fam1B.1 aminoacylation ribozyme variant] ; response: value
Output: 0.782

Task: Param readout = self-aminoacylation; param system = biotinyl-Met-oxazolone; param query = ACUACCCUGCUCAUCGAGUGA [Fam2.1 aminoacylation ribozyme variant] ; response: value
Output: 1.45

Task: Param readout = self-aminoacylation; param system = biotinyl-Met-oxazolone; param query = GCAAACUUCAAGCAAUCGGUC [Fam1B.1 aminoacylation ribozyme variant] ; response: value
Output: 2.05

Task: Param readout = self-aminoacylation; param system = biotinyl-Met-oxazolone; param query = AUGAACCUGGUCAUCGAGUGA [Fam2.1 aminoacylation ribozyme variant] ; response: value
Output: 5.7

Task: Param readout = self-aminoacylation; param system = biotinyl-Met-oxazolone; param query = AUUCACGUAGGUCUUCGGGUG [Fam2.2 aminoacylation ribozyme variant] ; response: value
Output: 4.21

Task: Param readout = self-aminoacylation; param system = biotinyl-Met-oxazolone; param query = CUACUUAAAACAAACGGUCUG [Fam1A.1 aminoacylation ribozyme variant] ; response: value
Output: 0.871

Task: Param readout = self-aminoacylation; param system = biotinyl-Met-oxazolone; param query = AUUUCCCUGGUCAUCGAAUGA [Fam2.1 aminoacylation ribozyme variant] ; response: value
Output: 1.02

Task: Param readout = self-aminoacylation; param system = biotinyl-Met-oxazolone; param query = CCACACUUCAAGCUAUCGGCC [Fam1B.1 aminoacylation ribozyme variant] ; response: value
Output: 1.7
